Source listed as PubChem BioAssay (Tox21).

# measuredOn: Progesterone receptor (Homo sapiens) (UniProt P06401)
# Sequence (P06401 whole entry, looked up): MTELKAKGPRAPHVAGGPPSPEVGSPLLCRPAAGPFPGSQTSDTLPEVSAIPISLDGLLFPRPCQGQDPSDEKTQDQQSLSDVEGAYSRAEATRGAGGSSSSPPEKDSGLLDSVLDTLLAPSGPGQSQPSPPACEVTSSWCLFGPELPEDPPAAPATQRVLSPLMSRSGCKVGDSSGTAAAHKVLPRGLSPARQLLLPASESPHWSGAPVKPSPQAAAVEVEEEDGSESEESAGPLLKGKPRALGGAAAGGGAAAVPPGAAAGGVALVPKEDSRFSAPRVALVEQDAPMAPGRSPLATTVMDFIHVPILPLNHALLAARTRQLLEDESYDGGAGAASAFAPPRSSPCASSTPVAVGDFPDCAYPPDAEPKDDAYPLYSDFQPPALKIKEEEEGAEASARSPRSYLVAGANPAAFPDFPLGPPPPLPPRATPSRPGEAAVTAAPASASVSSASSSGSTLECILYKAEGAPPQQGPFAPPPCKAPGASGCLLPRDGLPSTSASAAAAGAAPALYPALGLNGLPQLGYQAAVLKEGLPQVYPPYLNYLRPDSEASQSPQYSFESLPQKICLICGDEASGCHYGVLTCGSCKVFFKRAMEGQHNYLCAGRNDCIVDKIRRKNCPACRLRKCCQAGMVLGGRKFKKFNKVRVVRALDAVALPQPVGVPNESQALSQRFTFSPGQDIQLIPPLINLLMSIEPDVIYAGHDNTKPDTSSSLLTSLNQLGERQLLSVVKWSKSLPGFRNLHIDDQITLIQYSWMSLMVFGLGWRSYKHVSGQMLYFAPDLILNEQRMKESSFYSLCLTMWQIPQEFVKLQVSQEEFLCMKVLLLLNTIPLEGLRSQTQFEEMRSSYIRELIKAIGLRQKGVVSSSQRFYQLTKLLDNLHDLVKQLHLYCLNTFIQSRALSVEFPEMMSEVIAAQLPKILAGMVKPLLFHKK
# testDetails: qHTS assay to identify small molecule antagonists of the progesterone receptor (PR) signaling pathway (AID 1346795)
# conditionsUsed: PR-UAS-bla HEK293T, beta-lactamase FRET ratio, 16 h; series mostly up to 92.4 µM
Results filed as inconclusive are left out. Calls of active or inactive are those of the source. Calls come from the whole dose curve; as a rule, active = well fitted inhibition curve with a large enough effect in the signal ratio in the repeat runs (not every such curve was filed as active); inconclusive = weak or mixed curves; inactive = flat fitted curve, though single readings scatter; the % refers to the signal ratio.
Form entry, call: pick from active, inactive

Consider the following illustrative entries.
Lab log entry: COC(=O)N(OC)c1ccccc1COc1ccn(-c2ccc(Cl)cc2)n1 — outcome as called in the assay?
active

Lab log entry: CCN(CC)C(=O)N[C@@H]1C=C2c3cccc4[nH]cc(c34)C[C@@H]2N(C)C1 — outcome as called in the assay?
inactive

Lab log entry: Nc1nc(N)nc(Cl)n1 — outcome as called in the assay?
inactive

Lab log entry: C=CC(=C)C — outcome as called in the assay?
inactive

Lab log entry: CN1CCc2cc3c(cc2C1O)OCO3 (configuration not stated) — outcome as called in the assay?
inactive

Continuing:
Lab log entry: c1ccc2nc(N3CCNCC3)ccc2c1 — outcome as called in the assay?
inactive

Lab log entry: Cc1ccc(C)c2ccccc12 — outcome as called in the assay?
inactive
